Biological target: Human mTOR (FLAG-TOR) (Homo sapiens, UniProt P42345)
Construct: FLAG
Test: Human mTOR kinase assay with purified enzyme, DELFIA format
Type: biochemical
OUTCOME_MEASURE: IC50 (pM)
Kindly answer with a numeric value in pM, unit omitted.

Request: Fill in the blank: the reported IC50 of CC(C)(C)OC(=O)N1CCC(n2ncc3c(N4CC5CCC(C4)O5)nc(-c4ccc(NC(=O)Nc5ccncc5)cc4)nc32)CC1 [Example 25] is ____.
Response: 470

Request: Also Cn1ncc2c(N3CC4CCC(C3)O4)nc(-c3ccc(NC(=O)Nc4cccnc4)cc3)nc21 [Example 56] ?
Response: 270

Request: Also O=C(Nc1ccncc1)Nc1ccc(-c2nc(N3CC4CCC(C3)O4)c3cnn(CCF)c3n2)cc1 [Example 249] ?
Response: 185

Request: Also O=C1CCC(n2ncc3c(N4CC5CCC(C4)O5)nc(-c4ccc(NC(=O)OCCO)cc4)nc32)CC1 [Example 211] ?
Response: 885

Request: Also CC(C)C(=O)N1CCC(n2ncc3c(N4CC5CCC(C4)O5)nc(-c4ccc(NC(=O)Nc5ccccc5)cc4)nc32)CC1 [Example 87] ?
Response: 800

Request: Also O=C(Nc1ccc(-c2nc(N3CC4CCC(C3)O4)c3cnn(C4CCC(O)CC4)c3n2)cc1)OCCO (centres unmarked) [Example 212] ?
Response: 565

Request: Also CCn1ncc2c(N3CC4CCC(C3)O4)nc(-c3ccc(NC(=O)Nc4ccc(NC)nc4)cc3)nc21 [Example 286] ?
Response: 900

Request: Also CCn1ncc2c(N3CC4CCC(C3)O4)nc(-c3ccc(NC(=O)Nc4ccc(N5CCOCC5)nc4)cc3)nc21 [Example 184] ?
Response: 295

Request: Also CN(C)CCn1ncc2c(N3CC4CCC(C3)O4)nc(-c3ccc(NC(=O)OCCO)cc3)nc21 [Example 158] ?
Response: 27000

Request: Also Cn1ncc2c(N3CC4CCC(C3)O4)nc(-c3ccc(NC(=O)Nc4ccc(CO)cc4)cc3)nc21 [Example 231] ?
Response: 130

Request: Also CN1CCN(CCNC(=O)Nc2ccc(-c3nc(N4CC5CCC(C4)O5)c4cnn(C5CCC6(CC5)OCCO6)c4n3)cc2)CC1 [Example 134] ?
Response: 17500

Request: Also CN(C)CCn1ncc2c(N3CC4CCC(C3)O4)nc(-c3ccc(NC(=O)Nc4ccc(CCO)cc4)cc3)nc21 [Example 155] ?
Response: 1750

Request: Also CC(C)(C)n1ncc2c(N3CC4CCC(C3)O4)nc(-c3ccc(NC(=O)Nc4ccncc4)cc3)nc21 [Example 101] ?
Response: 530

Request: Also CC(C)n1ncc2c(N3CC4CCC(C3)O4)nc(-c3ccc(NC(=O)Nc4cccnc4)cc3)nc21 [Example 148] ?
Response: 64

Request: Also CCNC(=O)Nc1ccc(-c2nc(N3CC4CCC(C3)O4)c3cnn(CCF)c3n2)cc1 [Example 247] ?
Response: 700

Request: Also CCn1ncc2c(N3CC4CCC(C3)O4)nc(-c3ccc(NC(=O)NCCOCCN)cc3)nc21 [Example 225] ?
Response: 26500

Request: Also CCn1ncc2c(N3CC4CCC(C3)O4)nc(-c3ccc(NC(=O)Nc4ccc(OCCN(C)C)cc4)cc3)nc21 [Example 186] ?
Response: 835

Request: Also CCn1ncc2c(N3CC4CCC(C3)O4)nc(-c3ccc4[nH]ccc4c3)nc21 [Example 76] ?
Response: 29000

Request: Also COC(=O)Nc1ccc(-c2nc(N3CC4CCC(C3)O4)c3cnn(C(C)C)c3n2)cc1 [Example 138] ?
Response: 1280

Request: Also N#CCCn1ncc2c(N3CC4CCC(C3)O4)nc(-c3ccc(NC(=O)Nc4ccc(CCO)cc4)cc3)nc21 [Example 219] ?
Response: 82

Request: Also CCn1ncc2c(N3CC4CCC(C3)O4)nc(-c3ccc(NC(=O)NC4CC4)cc3)nc21 [Example 43] ?
Response: 400

Request: Also CC(C)(C)n1ncc2c(N3CC4CCC(C3)O4)nc(-c3ccc(NC(=O)Nc4ccccc4)cc3)nc21 [Example 99] ?
Response: 1800

Request: Also CN(C)CCn1ncc2c(N3CC4CCC(C3)O4)nc(-c3ccc(NC(=O)Nc4ccc(CO)cc4)cc3)nc21 [Example 163] ?
Response: 880

Request: Also CCn1ncc2c(N3CC4CCC(C3)O4)nc(-c3ccc(NC(=O)NCCCN)cc3)nc21 [Example 176] ?
Response: 3550

Request: Also CCn1ncc2c(N3CC4CCC(C3)O4)nc(-c3ccc(NC(=O)Nc4ccc(C#N)cc4)cc3)nc21 [Example 190] ?
Response: 505

Request: Also COC(=O)N1CCC(n2ncc3c(N4CC5CCC(C4)O5)nc(-c4ccc(NC(=O)Nc5ccc(N6CCN(C)CC6)nc5)cc4)nc32)CC1 [Example 167] ?
Response: 425

Request: Also O=C(Nc1ccc(-c2nc(N3CC4CCC(C3)O4)c3cnn(CC(F)(F)F)c3n2)cc1)Nc1ccc(N2CCOCC2)cc1 [Example 251] ?
Response: 340

Request: Also CCn1ncc2c(N3CC4CCC(C3)O4)nc(-c3ccc(NC(=O)Nc4ccc(N5CCN(C)CC5)cc4)cc3)nc21 [Example 180] ?
Response: 275

Request: Also COC(=O)N1CCC(n2ncc3c(N4CC5CCC(C4)O5)nc(-c4ccc(NC(=O)OCCN5CCCC5)cc4)nc32)CC1 [Example 116] ?
Response: 335000

====

Molecular target: PI3K (Homo sapiens)
Construct: PI3 Kinase δ IC50; other: PI3 Kinase δ; other: PI3 Kinase δ isoform, fluorescence polarization
Sequence (O00329 whole entry, canonical isoform): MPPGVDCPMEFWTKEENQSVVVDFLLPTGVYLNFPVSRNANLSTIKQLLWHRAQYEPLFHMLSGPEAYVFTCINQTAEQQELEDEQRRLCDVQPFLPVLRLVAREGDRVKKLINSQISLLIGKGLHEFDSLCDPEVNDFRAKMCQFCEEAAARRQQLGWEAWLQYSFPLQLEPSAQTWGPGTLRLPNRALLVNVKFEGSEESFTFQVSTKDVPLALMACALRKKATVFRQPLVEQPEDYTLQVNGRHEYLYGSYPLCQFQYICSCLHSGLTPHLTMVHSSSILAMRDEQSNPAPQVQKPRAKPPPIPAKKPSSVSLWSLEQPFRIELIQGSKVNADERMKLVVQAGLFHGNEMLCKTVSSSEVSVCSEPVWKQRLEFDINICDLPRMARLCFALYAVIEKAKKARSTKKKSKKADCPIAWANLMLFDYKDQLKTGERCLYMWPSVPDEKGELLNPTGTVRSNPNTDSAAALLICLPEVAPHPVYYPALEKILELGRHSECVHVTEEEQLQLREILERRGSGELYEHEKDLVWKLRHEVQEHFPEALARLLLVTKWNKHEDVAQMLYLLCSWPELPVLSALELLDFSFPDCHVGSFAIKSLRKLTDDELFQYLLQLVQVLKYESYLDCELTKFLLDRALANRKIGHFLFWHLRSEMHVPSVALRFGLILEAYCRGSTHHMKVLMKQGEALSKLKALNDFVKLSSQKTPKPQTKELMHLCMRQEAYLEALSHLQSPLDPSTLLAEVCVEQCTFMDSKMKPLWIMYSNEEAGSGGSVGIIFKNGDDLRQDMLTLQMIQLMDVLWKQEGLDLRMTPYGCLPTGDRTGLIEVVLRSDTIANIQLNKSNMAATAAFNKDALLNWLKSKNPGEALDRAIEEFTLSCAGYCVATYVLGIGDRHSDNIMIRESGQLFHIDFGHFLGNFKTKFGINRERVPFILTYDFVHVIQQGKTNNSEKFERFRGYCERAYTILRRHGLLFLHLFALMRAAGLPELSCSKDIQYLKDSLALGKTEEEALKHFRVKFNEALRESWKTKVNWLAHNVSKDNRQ
Experiment: Fluorescence polarization assay for PI3K
Format: biochemical
Conditions: PI3 Kinase δ isoform, fluorescence polarization
OUTCOME_MEASURE: IC50
Remember to put the unit after the number in your answer.

Request: Record COC1CCC(n2ncc3c(N4CC5CCC(C4)O5)nc(-c4ccc(NC(=O)Nc5ccc(N6CCN(C)CC6)cc5)cc4)nc32)CC1 (stereo not drawn) [Example 304] : what is its IC50 with PI3K (Homo sapiens)?
Response: 200 nM

Request: Also COC1CCC(n2ncc3c(N4CC5CCC(C4)O5)nc(-c4ccc(NC(=O)NC5CC5)cc4)nc32)CC1 (stereo not drawn) [Example 302] ?
Response: 1740 nM

Request: Also O=C(Nc1ccc(-c2nc(N3C[C@@H]4C[C@H]3CO4)c3cnn(CC(F)(F)F)c3n2)cc1)NC1CC1 [Example 296] ?
Response: 6820 nM

====

Molecular target: Human mTOR (FLAG-TOR) (Homo sapiens, UniProt P42345)
Construct: FLAG
Test: Human mTOR kinase assay with purified enzyme, DELFIA format
Type: biochemical
Please go through the items and note down their pIC50.
The value called pIC50 is obtained by taking minus log10 of the concentration in mol/L.

Request: Record `CCn1ncc2c(N3CC4CCC(C3)O4)nc(-c3ccc(NC(=O)Nc4ccc(C(=O)NN5CCCC5)cc4)cc3)nc21` : what is its pIC50 with Human mTOR (FLAG-TOR) (Homo sapiens, UniProt P42345)?
Response: 9.76

Request: Also `CC(C)OC(=O)N1CCC(n2ncc3c(N4CC5CCC(C4)O5)nc(-c4ccc(NC(=O)NCCO)cc4)nc32)CC1` ?
Response: 9.77

Request: Also `CC(C)OC(=O)N1CCC(n2ncc3c(N4CC5CCC(C4)O5)nc(-c4ccc(N)cc4)nc32)CC1` ?
Response: 7.34

Request: Also `O=C(Nc1ccc(-c2nc(N3CC4CCC(C3)O4)c3cnn(CCF)c3n2)cc1)NC1CC1` ?
Response: 9.12

====

Molecular target: Human mTOR (FLAG-TOR) (Homo sapiens)
Construct: FLAG
Experiment: Human mTOR kinase assay with purified enzyme, DELFIA format
Assay type: biochemical
OUTCOME_MEASURE: pIC50
The value called pIC50 is obtained by taking minus log10 of the concentration in mol/L.

Request: Record `CNC(=O)Nc1ccc(-c2nc(N3CC4CCC(C3)O4)c3cnn(C4CCN(C(=O)C(C)C)CC4)c3n2)cc1` : what is its pIC50 with Human mTOR (FLAG-TOR) (Homo sapiens)?
Response: 9.24

Request: Also `CC(C)n1ncc2c(N3CC4CCC(C3)O4)nc(-c3ccc(NC(=O)OCCO)cc3)nc21` ?
Response: 9.57

Request: Also `O=C(Nc1ccc(-c2nc(N3CC4CCC(C3)O4)c3cnn(C4CCC5(CC4)OCCO5)c3n2)cc1)OCCF` ?
Response: 8.82

Request: Also `CCNC(=O)Nc1ccc(-c2nc(N3CC4CCC(C3)O4)c3cnn(C4CCN(C(=O)C(C)C)CC4)c3n2)cc1` ?
Response: 9.12

Request: Also `O=C(Nc1ccc(-c2nc(N3CC4CCC(C3)O4)c3cnn(C4CCN(CC(F)(F)F)CC4)c3n2)cc1)NC1CC1` ?
Response: 8.92

Request: Also `CCn1ncc2c(N3CC4CCC(C3)O4)nc(-c3ccc(NC(=O)NCCN)cc3)nc21` ?
Response: 8.65

Request: Also `O=C(Nc1ccc(-c2nc(N3CC4CCC(C3)O4)c3cnn(CCO)c3n2)cc1)Nc1ccc(N2CCOCC2)cc1` ?
Response: 9.31

Hey, just so you know, these numbers are from patent US8129371B2.
